Target: HiBit-BRM fusion protein (Homo sapiens)
Construct: expressed in transfected cells
Sequence (P51531 whole entry, the tested form may be a part): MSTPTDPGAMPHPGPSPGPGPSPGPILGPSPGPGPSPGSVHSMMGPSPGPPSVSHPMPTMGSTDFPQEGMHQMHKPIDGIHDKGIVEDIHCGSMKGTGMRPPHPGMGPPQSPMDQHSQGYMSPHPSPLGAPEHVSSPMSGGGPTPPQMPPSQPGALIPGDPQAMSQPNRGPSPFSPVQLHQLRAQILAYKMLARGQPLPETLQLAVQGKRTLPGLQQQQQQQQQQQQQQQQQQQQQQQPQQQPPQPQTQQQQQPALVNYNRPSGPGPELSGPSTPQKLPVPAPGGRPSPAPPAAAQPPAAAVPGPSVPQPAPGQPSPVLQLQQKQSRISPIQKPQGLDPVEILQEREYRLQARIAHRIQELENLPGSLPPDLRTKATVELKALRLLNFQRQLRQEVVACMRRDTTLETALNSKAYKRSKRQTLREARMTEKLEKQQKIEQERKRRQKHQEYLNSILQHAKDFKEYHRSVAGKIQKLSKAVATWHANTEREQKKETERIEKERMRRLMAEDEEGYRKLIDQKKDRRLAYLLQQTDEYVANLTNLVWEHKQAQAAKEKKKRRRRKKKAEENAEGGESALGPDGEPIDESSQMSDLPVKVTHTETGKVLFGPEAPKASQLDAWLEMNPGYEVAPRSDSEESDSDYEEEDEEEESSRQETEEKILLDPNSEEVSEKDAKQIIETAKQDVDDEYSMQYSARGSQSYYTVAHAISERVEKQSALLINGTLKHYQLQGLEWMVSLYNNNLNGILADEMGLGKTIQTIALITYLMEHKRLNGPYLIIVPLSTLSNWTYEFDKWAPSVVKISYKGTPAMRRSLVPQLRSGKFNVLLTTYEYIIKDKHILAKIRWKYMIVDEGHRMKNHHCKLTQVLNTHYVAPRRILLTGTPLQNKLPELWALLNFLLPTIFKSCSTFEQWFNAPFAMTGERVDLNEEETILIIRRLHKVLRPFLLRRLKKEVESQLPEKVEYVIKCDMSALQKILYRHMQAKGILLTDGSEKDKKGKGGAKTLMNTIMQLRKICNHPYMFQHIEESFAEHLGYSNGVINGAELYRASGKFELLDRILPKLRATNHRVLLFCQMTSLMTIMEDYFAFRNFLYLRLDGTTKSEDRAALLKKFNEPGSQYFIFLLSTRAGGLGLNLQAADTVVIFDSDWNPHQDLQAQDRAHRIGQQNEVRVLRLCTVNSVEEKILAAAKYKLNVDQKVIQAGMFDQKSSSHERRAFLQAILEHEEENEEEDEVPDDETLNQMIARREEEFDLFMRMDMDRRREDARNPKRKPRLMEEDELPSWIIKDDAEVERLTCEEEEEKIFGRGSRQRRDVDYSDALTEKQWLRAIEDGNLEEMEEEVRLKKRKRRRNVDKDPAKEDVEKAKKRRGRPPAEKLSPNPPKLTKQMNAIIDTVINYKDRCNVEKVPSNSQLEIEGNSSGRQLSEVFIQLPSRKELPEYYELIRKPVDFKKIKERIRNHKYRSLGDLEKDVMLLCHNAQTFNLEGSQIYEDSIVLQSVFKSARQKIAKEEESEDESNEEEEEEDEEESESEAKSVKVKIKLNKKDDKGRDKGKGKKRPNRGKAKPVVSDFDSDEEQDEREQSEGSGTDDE
Assay: HiBiT-BRM cell-based degradation assay (Nano-Glo HiBiT Lytic Detection, 24 h)
Conditions: stable HeLa cell line expressing HiBiT-BRM, read-out: BRM HiBit Degradation IC50
RECORDED METRIC: DC50

Lookup: Could you share which DC50 value was measured for Cc1cc(-c2cc([C@H](C(=O)N3C[C@H](O)C[C@H]3C(=O)N[C@@H](C)c3ccc(-c4scnc4C)cc3)C(C)C)on2)cnc1N1CC[C@@H](c2sc3nnc(-c4ccccc4O)cc3c2C)C1 [Compound 101] ?
Found: > 0.01 µM

Lookup: Try Cc1ncsc1-c1ccc([C@H](C)NC(=O)[C@@H]2C[C@@H](O)CN2C(=O)[C@@H](c2cc(N3CC(c4sc5nnc(-c6ccccc6O)cc5c4C)C3)no2)C(C)C)cc1 [Compound 19] next.
Found: > 1 µM

Lookup: Quick one: Cc1ncsc1-c1ccc([C@H](C)NC(=O)[C@@H]2C[C@@H](O)CN2C(=O)[C@@H](c2cc(N3CCC(c4cnc(N5CCC(c6sc7nnc(-c8ccccc8O)cc7c6C)CC5)nc4)CC3)no2)C(C)C)cc1 (single isomer, unassigned) [Compound 60]
Found: < 0.01 µM

Lookup: Another compound to look at: Cc1ncsc1-c1ccc([C@H](C)NC(=O)[C@@H]2C[C@@H](O)CN2C(=O)[C@@H](c2cc(-c3c(C)nc(N4CCC(c5sc6nnc(-c7ccccc7O)cc6c5C)CC4)nc3C)no2)C(C)C)cc1 [Compound 11]
Found: < 0.01 µM

Lookup: Lookup Cc1ncsc1-c1ccc([C@H](C)NC(=O)[C@@H]2C[C@@H](O)CN2C(=O)[C@@H](c2cc(-c3cnc(N4C[C@@H]5[C@H](C4)[C@H]5c4sc5nnc(-c6ccccc6O)cc5c4C)nc3)no2)C(C)C)cc1 (stereo in doubt) [Compound 40]
Found: < 0.01 µM

###

Target: HiBit-BRG1 fusion protein (Homo sapiens)
Construct: expressed in transfected cells
Assay: HiBiT-BRG1 cell-based degradation assay (Nano-Glo HiBiT Lytic Detection, 24 h)
Details: stable HeLa cell line expressing HiBit-BRG1 and LgBit, read-out: BRG1 HiBit Degradation Maximum (%)
RECORDED METRIC: Dmax

Lookup: Endpoint output: Dmax of Cc1ncsc1-c1ccc([C@H](C)NC(=O)[C@@H]2C[C@@H](O)CN2C(=O)C(c2cc([C@H]3CC[C@H](c4cnc(N5CCC(c6sc7nnc(-c8ccccc8O)cc7c6C)CC5)nc4)CC3)no2)C(C)C)cc1 (stereo partly drawn) [Compound 64] . Value?
Found: > 75%

Lookup: Consider next the compound Cc1cc(N2CCC(c3sc4nnc(-c5ccccc5O)cc4c3C)CC2)ncc1-c1cc([C@H](C(=O)N2C[C@H](O)C[C@H]2C(=O)N[C@@H](C)c2ccc(-c3scnc3C)cc2)C(C)C)on1 [Compound 38] in the same way.
Found: < 50%

Lookup: Moving on to the next compound: Cc1ncsc1-c1ccc([C@H](C)NC(=O)[C@@H]2C[C@@H](O)CN2C(=O)[C@@H](c2cc(-c3ccnc(N4CC[C@@H](c5cc6nnc(-c7ccccc7O)cc6s5)C4)n3)no2)C(C)C)cc1 [Compound 83]
Found: < 50%

###

Field: Dmax. Provide a value for each of the compounds that follow.
Target: HiBit-BRG1 fusion protein (Homo sapiens, UniProt P51532)
Construct: expressed in transfected cells
Sequence (P51532 whole entry, the tested form may be a part): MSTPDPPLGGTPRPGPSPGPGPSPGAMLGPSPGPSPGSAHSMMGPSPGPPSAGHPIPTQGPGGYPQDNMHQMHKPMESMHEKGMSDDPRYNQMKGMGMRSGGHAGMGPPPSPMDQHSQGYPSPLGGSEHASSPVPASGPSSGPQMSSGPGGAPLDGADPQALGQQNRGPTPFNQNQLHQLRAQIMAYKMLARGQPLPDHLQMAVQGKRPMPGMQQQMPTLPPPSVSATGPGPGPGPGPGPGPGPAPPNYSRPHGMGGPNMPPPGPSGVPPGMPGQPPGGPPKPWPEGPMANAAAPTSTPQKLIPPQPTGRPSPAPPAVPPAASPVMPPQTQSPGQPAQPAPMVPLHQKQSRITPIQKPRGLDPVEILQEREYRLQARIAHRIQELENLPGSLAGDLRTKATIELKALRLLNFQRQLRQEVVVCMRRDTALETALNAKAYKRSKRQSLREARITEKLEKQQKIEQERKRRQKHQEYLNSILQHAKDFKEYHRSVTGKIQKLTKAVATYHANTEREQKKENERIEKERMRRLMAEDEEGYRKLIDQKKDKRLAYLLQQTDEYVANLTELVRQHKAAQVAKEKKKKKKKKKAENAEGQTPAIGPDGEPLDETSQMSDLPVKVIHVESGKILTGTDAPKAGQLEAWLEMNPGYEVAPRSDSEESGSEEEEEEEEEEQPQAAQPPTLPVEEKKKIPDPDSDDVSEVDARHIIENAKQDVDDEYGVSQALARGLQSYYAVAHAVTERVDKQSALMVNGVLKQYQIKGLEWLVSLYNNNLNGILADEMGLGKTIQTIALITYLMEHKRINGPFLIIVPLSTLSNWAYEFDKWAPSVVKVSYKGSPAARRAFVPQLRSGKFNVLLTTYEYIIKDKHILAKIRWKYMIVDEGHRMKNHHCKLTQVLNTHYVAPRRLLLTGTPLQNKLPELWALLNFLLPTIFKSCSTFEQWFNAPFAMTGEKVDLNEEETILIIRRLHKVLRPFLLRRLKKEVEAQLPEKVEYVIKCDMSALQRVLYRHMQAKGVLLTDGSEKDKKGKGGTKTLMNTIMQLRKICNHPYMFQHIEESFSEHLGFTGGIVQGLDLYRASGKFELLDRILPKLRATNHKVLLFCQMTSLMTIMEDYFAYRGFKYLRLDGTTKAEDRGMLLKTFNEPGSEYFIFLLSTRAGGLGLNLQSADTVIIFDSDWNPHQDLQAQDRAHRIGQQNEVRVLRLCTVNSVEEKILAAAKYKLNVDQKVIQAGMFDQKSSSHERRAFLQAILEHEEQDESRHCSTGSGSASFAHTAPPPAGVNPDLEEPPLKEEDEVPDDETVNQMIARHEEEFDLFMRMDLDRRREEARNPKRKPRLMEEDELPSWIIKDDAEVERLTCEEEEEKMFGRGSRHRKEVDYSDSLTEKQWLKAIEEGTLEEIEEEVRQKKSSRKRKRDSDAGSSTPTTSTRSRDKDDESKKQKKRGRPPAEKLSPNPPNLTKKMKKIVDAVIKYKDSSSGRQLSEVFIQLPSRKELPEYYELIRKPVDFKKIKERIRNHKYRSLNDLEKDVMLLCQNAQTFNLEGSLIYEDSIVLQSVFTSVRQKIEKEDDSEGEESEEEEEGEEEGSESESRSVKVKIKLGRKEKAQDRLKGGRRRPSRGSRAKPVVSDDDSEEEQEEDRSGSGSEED
Assay: HiBiT-BRG1 cell-based degradation assay (Nano-Glo HiBiT Lytic Detection, 24 h)
Conditions: stable HeLa cell line expressing HiBit-BRG1 and LgBit, read-out: BRG1 HiBit Degradation Maximum (%)

Lookup: Record request: Dmax value, item `Cc1ncsc1-c1ccc([C@H](C)NC(=O)[C@@H]2C[C@@H](O)CN2C(=O)[C@@H](c2cc(-c3cnc(N4CC[C@@H](c5cc6nnc(-c7ccccc7O)cc6s5)C4)nc3)no2)C(C)C)cc1`
Found: > 50%

Lookup: Also Cc1ncsc1-c1ccc([C@H](C)NC(=O)[C@@H]2C[C@@H](O)CN2C(=O)[C@@H](c2cc(-c3cnc(CN4CCC(c5cc6cc(-c7ccccc7O)nnc6s5)CC4)nc3)no2)C(C)C)cc1 (single isomer, unassigned) ?
Found: < 50%

Lookup: Thanks! And `Cc1ncsc1-c1ccc([C@H](C)NC(=O)[C@@H]2C[C@@H](O)CN2C(=O)[C@@H](c2cc(N3CCC4(CC3)CC(c3cc5nnc(-c6ccccc6O)cc5s3)C4)no2)C(C)C)cc1` ?
Found: > 50%

Lookup: Record: `Cc1ncsc1-c1ccc([C@H](C)NC(=O)[C@@H]2C[C@@H](O)CN2C(=O)[C@@H](c2cc(N3CC4(C3)CN(c3sc5nnc(-c6ccccc6O)cc5c3C3CC3)C4)no2)C(C)C)cc1`
Found: < 50%

Lookup: Follow-up item: Cc1ncsc1-c1ccc([C@H](C)NC(=O)[C@@H]2C[C@@H](O)CN2C(=O)[C@@H](c2cc(C#Cc3sc4nnc(-c5ccccc5O)cc4c3C)no2)C(C)C)cc1 (single isomer, unassigned)
Found: > 50%

Lookup: Now this one: `Cc1ncsc1-c1ccc([C@H](C)NC(=O)[C@@H]2C[C@@H](O)CN2C(=O)[C@@H](c2cc(N3C[C@@H]4[C@H](C3)[C@H]4c3sc4nnc(-c5ccccc5O)cc4c3C)no2)C(C)C)cc1`
Found: > 50%

Lookup: Next: `Cc1ncsc1-c1ccc([C@H](C)NC(=O)[C@@H]2C[C@@H](O)CN2C(=O)[C@@H](c2cc(-c3cnc(N4CC[C@@H](c5sc6nnc(-c7ccccc7O)cc6c5C)C[C@H]4C)nc3)no2)C(C)C)cc1`
Found: < 50%

Lookup: Next entry: `Cc1ncsc1-c1ccc([C@H](C)NC(=O)[C@@H]2C[C@@H](O)CN2C(=O)[C@@H](c2cc(-c3ccc(N4CC(c5sc6nnc(-c7ccccc7O)cc6c5C)C4)nc3)no2)C(C)C)cc1`
Found: < 50%

Lookup: Same question for `Cc1ncsc1-c1ccc([C@H](C)NC(=O)[C@@H]2C[C@@H](O)CN2C(=O)[C@@H](c2cc(-c3cnc(N4CC5(CC(c6cc7nnc(-c8ccccc8O)cc7s6)C5)C4)nc3)no2)C(C)C)cc1` please.
Found: > 75%

The measured values listed here are drawn from patent US20250304596A1.
